Origin of values: ChEMBL document CHEMBL4340549

# Tested on: Thoracic aorta
# Assay: Vasodilatory activity in Sprague-Dawley rat thoracic aorta assessed as inhibition of noradrenaline-induced contractions at 10 uM relative to untreated control
# Format: functional
Readout type: inhibition at 10 µM
Report field: quantity (unit follows the number).

Example entries begin here.
>  <Molecule>
COc1cc2c(cc1OCC(O)CN1CCN(c3ccccc3OC)CC1)COC(C)C2=O (centres undefined)

>  <inhibition at 10 µM>
41.7%

$$$$
>  <Molecule>
CCOc1ccccc1N1CCN(CC(O)COc2c(OC)ccc3c2COC(C)C3=O)CC1 (centres undefined)

>  <inhibition at 10 µM>
23.1%

$$$$
>  <Molecule>
COc1cc2c(cc1OCC(O)CN1CCN(c3ccccc3Cl)CC1)COC(C)C2=O (centres undefined)

>  <inhibition at 10 µM>
27%

$$$$
>  <Molecule>
COc1cc2c(cc1OCC(O)CN1CCN(c3ccccc3Cl)CC1)C(=O)C(C)OC2 (centres undefined)

>  <inhibition at 10 µM>
30.2%

$$$$

# lookup: inhibition at 10 µM of COc1ccccc1N1CCN(CC(O)COc2c(OC)ccc3c2COC(C)C3=O)CC1 (centres undefined)
13.6%

# lookup: inhibition at 10 µM of COc1cc2c(cc1OCC(O)CN1CCN(C(=O)c3ccco3)CC1)COC(C)C2=O (centres undefined)
17.8%

* * *

# Tested on: Thoracic aorta
# Assay: Vasodilatory activity in Sprague-Dawley rat thoracic aorta assessed as inhibition of noradrenaline-induced contractions at 10 uM relative to untreated control
# Type: functional
Given measured inhibition at 10 µM, output class 1 if it is greater than or equal to 20% and class 0 if not.

Determine whether measured inhibition at 10 µM meets or exceeds 20% for COc1cc2c(cc1OCC(O)CN1CCN(C(=O)C3CCCO3)CC1)COC(C)C2=O (stereo not given)
class 1

* * *

In this section we review reported log10 of Kb values for a set of compounds.
# Tested system: Alpha-1D adrenergic receptor (Rattus norvegicus, UniProt P23944)
# Sequence (P23944 whole entry): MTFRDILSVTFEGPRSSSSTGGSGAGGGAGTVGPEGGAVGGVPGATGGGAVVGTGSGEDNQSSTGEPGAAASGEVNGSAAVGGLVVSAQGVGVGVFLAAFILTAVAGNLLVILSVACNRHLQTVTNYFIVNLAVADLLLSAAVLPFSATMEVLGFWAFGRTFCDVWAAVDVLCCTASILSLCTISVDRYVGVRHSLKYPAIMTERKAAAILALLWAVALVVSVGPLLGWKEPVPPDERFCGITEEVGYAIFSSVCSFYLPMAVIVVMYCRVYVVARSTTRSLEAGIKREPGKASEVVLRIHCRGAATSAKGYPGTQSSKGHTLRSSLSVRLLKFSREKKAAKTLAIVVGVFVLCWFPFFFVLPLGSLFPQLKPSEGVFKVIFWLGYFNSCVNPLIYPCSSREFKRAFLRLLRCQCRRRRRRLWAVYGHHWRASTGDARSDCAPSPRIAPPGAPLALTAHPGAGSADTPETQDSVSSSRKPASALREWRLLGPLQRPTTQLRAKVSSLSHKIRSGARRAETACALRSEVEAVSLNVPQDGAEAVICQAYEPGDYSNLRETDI
# Assay: Antagonist activity at alpha-1D adrenergic receptor in SPF rat vas thoracic aorta assessed as inhibition of noradrenaline-induced contractions
# Assay context: read-out: pA2 (converted)
Hi team, quick reminder: these entries are log10 of Kb (nM).

Example entries begin here.
>  <Compound>
COc1ccccc1N1CCN(CC(O)COc2cccc3ccccc23)CC1 (stereo not drawn)

>  <log10 of Kb>
2.16

$$$$
>  <Compound>
COc1cc2c(cc1OCC(O)CN1CCN(C(=O)c3ccco3)CC1)C(=O)C(C)OC2 (stereo not drawn)

>  <log10 of Kb>
3.19

$$$$
>  <Compound>
COc1cc2c(cc1OCC(O)CN1CCN(c3ccccc3OC)CC1)COC(C)C2=O (stereo not drawn)

>  <log10 of Kb>
3.34

$$$$

# lookup: log10 of Kb of COc1ccc2c(c1OCC(O)CN1CCN(C(=O)C3CCCO3)CC1)COC(C)C2=O (stereo not drawn)
2.53

# lookup: log10 of Kb of COc1ccc2c(c1OCC(O)CN1CCN(c3ccccc3)CC1)COC(C)C2=O (stereo not drawn)
2.47

# lookup: log10 of Kb of CCOc1ccccc1N1CCN(CC(O)COc2cc3c(cc2OC)COC(C)C3=O)CC1 (stereo not drawn)
2.69

# lookup: log10 of Kb of COc1cc2c(cc1OCC(O)CN1CCN(c3ccccc3)CC1)COC(C)C2=O (stereo not drawn)
2.79
